Origin of the recorded values: the supplement of paper PMC10307832

System: NCI-H2347
measurement.protocol: relative viability (nuclei count vs DMSO), 5 days (fraction); higher = more cells survive
condition.summary: first compound 158.11 µM
This section presents compounds with their documented relative viability values.

compound	relative viability
O=C(O)CCCCC(CCSCc1ccccc1)SCc1ccccc1 (centres undefined) [CPI-613] + Cc1cc(Nc2cc(N3CCN(C)CC3)nc(Sc3ccc(NC(=O)C4CC4)cc3)n2)n[nH]1 [Tozasertib] (partner 0.1 µM)	0.552
O=C(O)CCCCC(CCSCc1ccccc1)SCc1ccccc1 (centres undefined) [CPI-613] + N=C(N)NC(=N)NCCc1ccccc1 [Phenformin] (partner 250 µM)	0.471
O=C(O)CCCCC(CCSCc1ccccc1)SCc1ccccc1 (centres undefined) [CPI-613] + C[C@]1(O)C[C@@H](c2nc(-c3ccc4ccc(-c5ccccc5)nc4c3)c3c(N)nccn32)C1 [Linsitinib] (partner 1 µM)	0.874
O=C(O)CCCCC(CCSCc1ccccc1)SCc1ccccc1 (centres undefined) [CPI-613] + Nc1nc2[nH]cc(CCc3ccc(C(=O)N[C@@H](CCC(=O)O)C(=O)O)cc3)c2c(=O)[nH]1 [Pemetrexed] (partner 0.2 µM)	0.383
